Test system: K-562 leukemia
Assay: NCI tumour cell line growth inhibition, 48 h; in the data active = GI50 below about 0.43 µM; inactive = the rest
Classes used: active, inactive

>>> category("CN1CCN(c2ccc3nc(-c4ccc(OCCCCN5CCN(CCCCN6C(=O)c7cccc8cccc(c78)C6=O)CC5)cc4)[nH]c3c2)CC1")
"inactive"
>>> category("COc1ccc(-c2n/c(=C\\c3c(O)[nH]c4ccccc34)cc3c2=Nc2ccccc2-3)cc1")
"inactive"
>>> category("Cc1c2ccncc2c(C)c2c1[nH]c1ccc(Cl)cc12")
"inactive"
>>> category("Oc1ccc(Cl)cc1/C=N\\NC(=S)N/N=C/c1cc(Cl)ccc1O")
"inactive"
>>> category("O=C(Nc1nc2ccccc2s1)c1cc(-c2ccc(F)cc2)n2nc(-c3ccccc3)cc2n1")
"inactive"
>>> category("C/C(=N/O)c1ccc(Nc2cc(-n3ccnc3)c3ccccc3n2)cc1")
"inactive"
>>> category("O=C(/C=C/c1cccc2ccccc12)Nc1ncc(Cc2ccccc2)s1")
"active"
>>> category("CN=C(N)N/N=C(\\C)c1ccc2c(c1)Cc1ccccc1-2")
"inactive"
>>> category("COc1cccc2c1cc1c3c(cc4c(c32)OCO4)C(=O)N1")
"inactive"
>>> category("O=C1/C(=C\\c2ccccc2)C2OCC=C3CN4CCC56c7ccccc7N1C5C2C3CC46 (stereo not given)")
"inactive"

The measured values listed here are drawn from PubChem BioAssay (NCI).
